B1: IKZF1 (parent)
chain: RDPFECNMCGYHSQDRYEFSSHIT

Variants of: B1
methodNotes: protein stability index of a GFP-peptide fusion (GPS, HEK-293T) (PSI 1-6); higher = more stable;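 further: lentivirally expressed fusions sorted by FACS into six bins by GFP to DsRed ratio, PSI derived from sequencing read proportions per bin multiplied by bin number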
statedConditions: c terminus: a fixed tail appended
assayReadout: protein stability index
One number for each entry.

Worked examples follow.
N7V | 2.04
Y11L | 2.65

Parameter requested: protein stability index. Apply to each item below.
1. S21N
2. H12M
3. Y17K
4. H12F

1. 2.3
2. 1.5
3. 2.21
4. 2.15

Parameter requested: protein stability index. Apply to each item below.
1. Q14A
2. H12E
3. C6F
4. Y11G
5. R16H

1: 1.98; 2: 2.39; 3: 1.96; 4: 3.49; 5: 2.51

Parameter requested: protein stability index. Apply to each item below.
1. C6E
2. H22Q
3. E18C
4. E18I
5. H12K
6. Y11F
7. Y17A

1. 3.58
2. 2.02
3. 1.91
4. 2.18
5. 2.27
6. 2.01
7. 2.28
